The measurements presented in this section are drawn from the supplement of paper PMC12669032.

tested on: Roseburia intestinalis; test: growth AUC relative to DMSO control (median of replicates) (fraction); higher = more growth (less inhibition), active = hit call of the paper; details: 20 µM; 24 h
growth AUC values, listed per item
Respond with the number and no other words.

Fill in growth AUC for "COc1cc(OC)nc(Sc2cccc(Cl)c2C(=O)O)n1" tested with Roseburia intestinalis.
0.984

----------
tested on: Escherichia coli ED1a; test: growth AUC relative to DMSO control (median of replicates) (fraction); higher = more growth (less inhibition), active = hit call of the paper; conditions: 20 µM; 24 h
Measured quantity: growth AUC
Respond with the number and no other words.

> print(dat)
                                   compound  recorded.number
1                        Clc1ccc(Cl)c(Cl)c1            0.996
2  O=c1oc2ccccc2c(O)c1C1CC(c2ccc(-c3ccccc3)cc2)Cc2ccccc21 (configuration not stated)                1
3                    CN(C)C(=S)SSC(=S)N(C)C            0.973
4  CN(C)C(CSS(=O)(=O)[O-])CSS(=O)(=O)O.[Na+]             1.03
5      CCOP(=S)(OCC)Oc1ccc([N+](=O)[O-])cc1                1

Answer with reported growth AUC of "CS(=O)(=O)c1ccc(C(=O)C2C(=O)CCCC2=O)c([N+](=O)[O-])c1"
1

Answer with reported growth AUC of "CCOP(=S)(OCC)Oc1cnc2ccccc2n1"
0.977

Answer with reported growth AUC of "CC(=O)O.CC(=O)O.CC(=O)O.NC(N)=NCCCCCCCCNCCCCCCCCN=C(N)N"
0.966

Answer with reported growth AUC of "CN(C)S(=O)(=O)N(SC(F)(Cl)Cl)c1ccccc1"
1.03

----------
test system: Collinsella aerofaciens; test: growth AUC relative to DMSO control (median of replicates) (fraction); higher = more growth (less inhibition), active = hit call of the paper; conditions: 20 µM; 24 h
Lab note: compare growth AUC against 1. Equal or greater, write y. Smaller, write n.

> print(dat)
                                   molecule      experimental.target  category.label
1              c1ccc2c(c1)-c1cccc3cccc-2c13  Collinsella aerofaciens               n
2  CS(=O)(=O)c1ccc(C(=O)C2C(=O)CCCC2=O)c(Cl)c1  Collinsella aerofaciens               y
3                       Oc1cc(Cl)c(Cl)cc1Cl  Collinsella aerofaciens               n
4  Clc1ccc(C2(Cn3cncn3)CC(Br)CO2)c(Cl)c1 (stereo not given)  Collinsella aerofaciens               n
5  CN(C)C(CSS(=O)(=O)c1ccccc1)CSS(=O)(=O)c1ccccc1  Collinsella aerofaciens               n
6  O=C(NC(=O)c1c(F)cccc1F)Nc1cc(Cl)c(OC(F)(F)C(F)C(F)(F)F)cc1Cl (stereo not given)  Collinsella aerofaciens               n
7  COP(=S)(OC)SC(CC(=O)O)C(=O)O (stereo not given)  Collinsella aerofaciens               y
8  O=C1C2(Cl)C3(Cl)C4(Cl)C(Cl)(Cl)C5(Cl)C3(Cl)C1(Cl)C5(Cl)C24Cl (stereo not given)  Collinsella aerofaciens               n

Please look at the following molecule next.
Please check the record "CCC(C)(CC)c1cc(NC(=O)c2c(OC)cccc2OC)on1" and state if its growth AUC is at or above 1.
n

----------
tested on: Lactobacillus paracasei; assay: growth AUC relative to DMSO control (median of replicates) (fraction); higher = more growth (less inhibition), active = hit call of the paper; details: 20 µM; 24 h
Measured quantity: growth AUC
Respond with the number and no other words.

Consider the following illustrative entries.
Compound	growth AUC
Oc1c(Cl)ccc(Cl)c1Cl	1.01
CCOP(=S)(OCC)Oc1cc(Cl)c(SC)cc1Cl	0.995
O=c1oc2ccccc2c(O)c1C1CCCc2ccccc21 (centres undefined)	0.894
O=C(O)c1ccc(=O)[nH]c1	0.987
CCOP(=S)(OCC)SCCS(=O)CC (centres undefined)	0.948
CC(C)(COCc1cccc(Oc2ccccc2)c1)c1ccc(OC(F)(F)Br)cc1	1.05

Here is the next item to consider.
Answer with reported growth AUC of "CNC(=O)CSP(=O)(OC)OC"
1.05

----------
growth AUC values, listed per item
test system: Escherichia coli ED1a; assay: growth AUC relative to DMSO control (median of replicates) (fraction); higher = more growth (less inhibition), active = hit call of the paper; conditions: 20 µM; 24 h
Respond with the number and no other words.

> print(dat)
                                   molecule    experimental.target  recorded.number
1  CCOP(=O)(NC(C)C)Oc1ccc(S(C)(=O)=O)c(C)c1 (stereo unspecified)  Escherichia coli ED1a             1.03
2          CCOP(=S)(OCC)Oc1nc(Cl)c(Cl)cc1Cl  Escherichia coli ED1a             1.02
3             CC(C)N1C(=O)c2ccccc2NS1(=O)=O  Escherichia coli ED1a            0.972
4  CCOP(=O)(SC(C)CC)SC(C)CC (stereo unspecified)  Escherichia coli ED1a             1.01
5  CCc1nn(C)c(C(=O)NCc2ccc(C(C)(C)C)cc2)c1Cl  Escherichia coli ED1a            0.974
6       COP(=O)(OC)O/C(=C\Cl)c1ccc(Cl)cc1Cl  Escherichia coli ED1a             1.01
7                N#CCNC(=O)c1cnccc1C(F)(F)F  Escherichia coli ED1a             1.01
8          CCOP(=S)(OCC)Oc1cc(Cl)c(SC)cc1Cl  Escherichia coli ED1a            0.999

Answer with reported growth AUC of CC(C)(C)C(O)/C(=C/c1ccc(Cl)cc1Cl)n1cncn1 (mixture of isomers)
0.983

Answer with reported growth AUC of CC(C)CC(C)c1sccc1NC(=O)c1cn(C)nc1C(F)(F)F (stereo unspecified)
0.998

Answer with reported growth AUC of "CCN(CC)c1c([N+](=O)[O-])cc(C(F)(F)F)c(N)c1[N+](=O)[O-]"
1.05

----------
tested on: Lactobacillus gasseri; assay: growth AUC relative to DMSO control (median of replicates) (fraction); higher = more growth (less inhibition), active = hit call of the paper; conditions: 20 µM; 24 h
Lab note: compare growth AUC against 1. Equal or greater, write met. Smaller, write not met.

> print(dat)
                               compound    experimental.target  category.label
1     CCS(=O)(=O)Oc1ccc2c(c1)C(C)(C)CO2  Lactobacillus gasseri             met
2  COC(=O)Nc1cccc(OC(=O)Nc2cccc(C)c2)c1  Lactobacillus gasseri         not met
3         CNc1nc(C)c(C)c(OC(=O)N(C)C)n1  Lactobacillus gasseri             met

Please check the record Cc1ccccc1CO[C@@H]1C[C@@]2(C(C)C)CC[C@]1(C)O2 (mixture of isomers) and state if its growth AUC is at or above 1.
not met

----------
tested on: Akkermansia muciniphila; test: growth AUC relative to DMSO control (median of replicates) (fraction); higher = more growth (less inhibition), active = hit call of the paper; conditions: 20 µM; 24 h
Measured quantity: growth AUC

Consider the following illustrative entries.
> print(dat)
                               input.smiles  measured.quantity            result
1                  CNC(=O)N(C)c1nc2ccccc2s1         growth AUC  0.902 (inactive)
2  C[C@@H](Oc1ccc(Oc2cnc3cc(Cl)ccc3n2)cc1)C(=O)O         growth AUC   1.07 (inactive)

Answer with reported growth AUC of "O=C1C[C@@H]2OCC=C3CN4CC[C@]56c7ccccc7N1[C@H]5[C@H]2[C@H]3C[C@H]46"
0.985 (inactive)

Answer with reported growth AUC of "c1cc2c3c(cccc3c1)CC2"
0.966 (inactive)

----------
test system: Lactobacillus paracasei; test: growth AUC relative to DMSO control (median of replicates) (fraction); higher = more growth (less inhibition), active = hit call of the paper; details: 20 µM; 24 h
Measured quantity: growth AUC

> print(dat)
                                   molecule      experimental.target  measured.quantity            result
1  O=C(Cc1ccccc1)N/C(=N\OCC1CC1)c1c(C(F)(F)F)ccc(F)c1F  Lactobacillus paracasei         growth AUC  0.946 (inactive)

Here is the next item to consider.
Answer with reported growth AUC of "CNC(=O)/C(=N\OC)c1ccccc1Oc1ccccc1"
0.986 (inactive)
